assay: Assessment of solubility: HT solubility in pION buffer, UV spectrophotometry; conditions: pION system solution buffer, pH 7.4, pH 7.4, aqueous buffer, kinetic from dmso stock, Solubility (pH 7.4), pH 7.4 buffer, 16-19 h incubation, 1.0% DMSO
solubility reference

COMPOUND: Cc1cc(CN2CCS(=O)(=O)CC2)ccc1COc1c(-c2csc(N3CCC(C(=O)O)CC3)n2)cccc1C(F)(F)F
solubility: > 62 µg/mL

COMPOUND: Cc1ccc(OCc2ccc(C(=O)N3CCCCC3)cc2C)c(-c2csc(N3CCC(C(=O)O)CC3C)n2)c1 (stereo not shown)
solubility: > 54 µg/mL

COMPOUND: Cc1ccc(OCc2ccc(C(=O)N3CCCCC3)cc2C)c(-c2csc(N3CCC(C(=O)O)C(C)C3)n2)c1 (stereo not shown)
solubility: > 62 µg/mL

COMPOUND: Cc1cc(CN2CCOCC2)ccc1COc1ccc(F)cc1-c1csc(N2CCC(C(=O)O)C(C)C2)n1 (stereo not shown)
solubility: > 61 µg/mL
